Cited source: patent US9902728B2

tested_system: USP7 (Homo sapiens, UniProt Q93009)
Construct: USP7, construct USP7 (208-1102) 6*His, Viva Biotech; 6xHis (C); purchased Viva Biotech
Sequence (Q93009 208-1102): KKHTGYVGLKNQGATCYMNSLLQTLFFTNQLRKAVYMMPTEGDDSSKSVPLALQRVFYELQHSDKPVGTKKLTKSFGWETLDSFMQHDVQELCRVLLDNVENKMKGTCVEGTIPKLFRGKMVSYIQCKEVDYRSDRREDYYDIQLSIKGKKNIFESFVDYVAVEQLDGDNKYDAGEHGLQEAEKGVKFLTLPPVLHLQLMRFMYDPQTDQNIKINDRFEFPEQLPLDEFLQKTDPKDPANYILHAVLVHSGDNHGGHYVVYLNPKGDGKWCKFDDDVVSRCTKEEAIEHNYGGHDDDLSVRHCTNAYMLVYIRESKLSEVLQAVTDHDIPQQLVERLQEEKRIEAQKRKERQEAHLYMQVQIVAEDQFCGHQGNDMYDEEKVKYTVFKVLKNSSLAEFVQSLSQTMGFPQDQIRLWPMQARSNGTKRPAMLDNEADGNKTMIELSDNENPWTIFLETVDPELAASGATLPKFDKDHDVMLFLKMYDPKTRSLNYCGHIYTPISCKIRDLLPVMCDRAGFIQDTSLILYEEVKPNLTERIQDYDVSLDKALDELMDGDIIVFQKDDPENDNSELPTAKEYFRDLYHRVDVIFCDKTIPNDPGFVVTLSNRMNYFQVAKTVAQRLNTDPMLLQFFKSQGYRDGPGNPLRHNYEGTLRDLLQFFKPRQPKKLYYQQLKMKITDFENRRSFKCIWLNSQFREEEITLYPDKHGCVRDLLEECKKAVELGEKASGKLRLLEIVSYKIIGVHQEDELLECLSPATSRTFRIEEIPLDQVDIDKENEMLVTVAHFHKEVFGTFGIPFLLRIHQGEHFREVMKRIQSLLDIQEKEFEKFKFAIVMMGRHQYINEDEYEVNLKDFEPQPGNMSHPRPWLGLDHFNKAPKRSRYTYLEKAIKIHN
procedure_details: USP7 Assay A (Ubitquin-Rhodamine 110 Assay)
Type: biochemical
particulars: USP7 assay A and B (table does not say which assay per compound); read-out: USP7_IC50
Entries and their measured IC50 follow.

| compound | tested_system | IC50 |
| --- | --- | --- |
| O=C(c1ccc(C2(O)CC2)cc1)N1CCC(O)(Cn2cnc3c(cnn3-c3ccccc3)c2=O)CC1 [Compound I-467] | USP7 (Homo sapiens, UniProt Q93009) | 1000 to 10000 nM |
| Nc1cc(-n2ncc3c(=O)n(CC4(O)CCN(C(=O)c5ccc(F)cc5)CC4)cnc32)ccc1F [Compound I-635] | USP7 (Homo sapiens, UniProt Q93009) | 1000 to 10000 nM |
| CC(CC(=O)N1CCC(O)(Cn2cnc3c(cnn3-c3ccc(-c4ccccc4)cc3)c2=O)CC1)n1cccn1 (stereo not shown) [Compound I-648] | USP7 (Homo sapiens, UniProt Q93009) | 1000 to 10000 nM |
| O=C(c1cccc(Cl)c1)N1CCC(O)(Cn2cnc3c(cnn3-c3ccc(F)cc3)c2=O)CC1 [Compound I-303] | USP7 (Homo sapiens, UniProt Q93009) | 1000 to 10000 nM |
| O=C(c1ccc(Cl)cc1Cl)N1CCC(O)(Cn2cnc3c(cnn3-c3ccc(F)cc3)c2=O)CC1 [Compound I-317] | USP7 (Homo sapiens, UniProt Q93009) | 200 to 1000 nM |
| C=CS(=O)(=O)Nc1ccc(C(=O)N2CCC(O)(Cn3cnc4c(cnn4-c4ccccc4)c3=O)CC2)cc1 [Compound I-173] | USP7 (Homo sapiens, UniProt Q93009) | 200 to 1000 nM |
| Cc1ccccc1S(=O)(=O)Nc1ccc(-n2ncc3c(=O)n(CC4(O)CCN(C(=O)C5CC5)CC4)cnc32)cc1 [Compound I-1425] | USP7 (Homo sapiens, UniProt Q93009) | 1000 to 10000 nM |
